# assay.notes: probe aLefty1 binding on compound microarray – biochemical, small-molecule microarray, 635/667 nm fluorescence, primary screen (AID 1153);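 note: score merges spot fluorescence with signal-to-noise ratio from the scanned slide images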
# condition.parameters: higher = more signal
// bucketize composite z-score: low group: < -0.005; middle group: ≥ -0.005 and < 0.2; high group: ≥ 0.2

compound	class.assignment
COc1cc(NN2C(C(O)c3ccc(N(C)C)cc3)C=CC3C(=O)N(c4ccccc4)C(=O)C32)cc(OC)c1OC (stereo not given)	high group
CC(C)=C1C(=O)C(c2ccccc2)=C2CN3C(=O)N(CCc4ccccc4)C(=O)[C@]3(Cc3ccc(C(F)(F)F)cc3)[C@H]21	high group
CC[C@@H]1C=C(C(=O)O)[C@H](c2ccc(C#N)cc2)N1S(=O)(=O)c1ccc(C)cc1	high group
O=C(NCc1ccc(F)cc1)[C@H]1C[C@H]2C(=O)NCC(=O)N2[C@H]1c1ccc(O)cc1	high group
CC(C)C[C@@H]1NC(=O)[C@@H]2C[C@H](C(=O)NCCCCCCN)[C@H](c3cccc(OCCO)c3)N2C1=O	high group
CCOC(=O)C[C@H]1[C@H](OC(=O)Cc2ccc3c(c2)OCO3)[C@@H](NC(=O)c2ccc3ccccc3n2)c2cc(OCCCO)ccc2N1C(=O)c1ccc2ccccc2n1	middle group
C[C@@H]1NC(=O)[C@@H](Cc2ccccc2)NC(=O)[C@@]23C(=O)N[C@@H](Cc4ccccc4)C2[C@H](C)[C@@]2(C)O[C@H]2C3/C=C/C/C=C\CNC1=O (stereo not given in full)	middle group
CC1CC/C=C\[C@H]2OC34C=CCN(Cc5ccccc5)C(=O)[C@H]3N(C(CO)C(C)C)C(=O)[C@@H]4C2C(=O)O1 (stereo not given in full)	low group
C=C[C@H](C)[C@H](OC(=O)Nc1ccc(SC)cc1)c1ccc(OCCO)cc1	high group
CCOC(=O)C=Cc1cccc(C)c1O	middle group
COc1cc2c(cc1O)C=[N+](Cc1sc3ccccc3c1Cl)CC2	middle group
CCCNC(=O)[C@@]1(Sc2ccc(C)cc2)CC(=O)N(C2Cc3ccccc3C2)[C@@H]1c1ccc(CO)cc1I	high group
CN(C)C(=O)[C@]1(CCC(=O)OC(C)(C)C)N=C(c2ccc(OCCCO)cc2)O[C@@H]1c1ccccc1CN=[N+]=[N-]	low group
CCOC(=O)C[C@H]1[C@H](OC(=O)c2cc3ccccc3oc2=O)[C@@H](NC(=O)CC(C)C)c2cc(OCCCO)ccc2N1C(=O)c1ccc2ccccc2n1	low group
CO[C@H]1O[C@H](CO)[C@@H](OC(=O)Nc2ccc3c(c2)OCO3)[C@H](OC(=O)Nc2ccc3c(c2)OCO3)[C@@H]1OC(=O)Nc1ccc2c(c1)OCO2	high group
COc1ccc([Si](C)(C)[C@@H]2[C@@H](CC(=O)N3Cc4ccccc4C[C@H]3CO)O[C@]3(C(=O)N(Cc4ccc(N5C(=O)c6cccc7cccc5c67)cc4)c4ccccc43)[C@H]2C)cc1	middle group
Cc1ccc(S[C@]2(C(=O)NCC(F)(F)F)CC(=O)N(Cc3cc(C(F)(F)F)cc(C(F)(F)F)c3)[C@@H]2c2ccc(CO)cc2I)cc1	low group
COC(=O)c1c(CC[C@@H](CO)NC(=O)N2CCC[C@H]2Cn2cc(C3(O)CCCCC3)nn2)oc(C(C)=O)c1C(=O)OC	low group
COCCCNC(=O)[C@@]1(Sc2ccc(C)cc2)CC(=O)N(C2Cc3ccccc3C2)[C@@H]1c1ccc(CO)cc1	middle group
COCCCNC(=O)[C@@H]1c2ccccc2C(=O)N(C(C)C)[C@H]1c1ccc(CO)cc1	middle group
C=CCC(OC(C)=O)[C@@H]1[C@@H](N(Cc2cccc3ccccc23)C(=O)Cc2ccc(F)cc2)c2cc(OCCCO)ccc2N1C(=O)c1ccc2ccccc2c1 (stereo not given in full)	high group
CC[C@@H]1O[Si](C(C)C)(C(C)C)c2c1cc(-c1cc(C)c(OC)c(C)c1)nc2-c1ccc(Oc2ccccc2)cc1	middle group
COc1ccc([Si](C)(C)[C@@H]2[C@@H](CC(=O)N(CCO)Cc3ccccc3)O[C@]3(C(=O)N(Cc4cccc(N5CCCCC5=O)c4)c4ccccc43)[C@H]2C)cc1	high group
COC(=O)[C@@]1(Cc2ccc(OC)cc2)[C@H]2c3cc(C(=O)N(C)C)n(Cc4ccc(OC(F)(F)F)cc4)c3C[C@H]2CN1C(=O)c1ccccc1	high group
CCCNC(=O)[C@@H]1c2ccccc2C(=O)N(Cc2ccc(OC(F)(F)F)cc2)[C@H]1c1ccc(CO)cc1	low group
COc1cc2c(cc1O)C(c1cccs1)N(Cc1cc3c(cc1Br)OCO3)CC2 (stereo not given)	low group
CCOC(=O)C1=C[C@@H](C(C)(C)C)N(S(=O)(=O)c2ccc(C)cc2)[C@H]1c1cccc2ccccc12	middle group
CCCCNC(=O)c1ccc(C#CC(C)(C)C)c(OC(C)=O)c1	low group
CCCCCN1CC=CC23O[C@@H]4/C=C\CCC(C)OC(=O)C4[C@H]2C(=O)N(C(CO)C(C)C)[C@@H]3C1=O (stereo not given in full)	low group
